# Read-out: sulfotransferase 2A1 (SULT2A1), SULT2A1 (gene 6822)
# test-details: LTEA_HepaRG_SULT2A1: Life Technologies and Expression Analysis (LTEA) Assay for sulfotransferase 2A1 (SULT2A1) using HepaRG (AID 2283531)
# assay-conditions: mRNA level, 48 h; actives raise or lower the signal
Activity calls are given as the source filed them. The calls were made as follows: active = hit-call score of the fitted dose curve at least 0.9, where 1 is the maximum; inactive = score below 0.9.
In this exercise, the only acceptable responses are active, inactive

Example entries begin here.
{"columns": ["molecule", "assigned-category"],
 "data": [
  ["CCC(C)(C)C(=O)OC1=C(c2ccc(Cl)cc2Cl)C(=O)OC12CCCCC2", "inactive"],
  ["CNC(=O)Oc1ccccc1OC(C)C", "inactive"],
  ["OCCOc1ccccc1", "inactive"],
  ["COP(=O)(OC)OC=C(Cl)Cl", "inactive"]
]}

Just curious, what result did `O=[N+]([O-])c1c(Cl)c(Cl)c(Cl)c(Cl)c1Cl` get here? inactive

Just curious, what result did `O=C(O)CCCOc1ccc(Cl)cc1Cl` get here? inactive

Just curious, what result did `CNC(=O)/C=C(\C)OP(=O)(OC)OC` get here? inactive

Just curious, what result did `CC(C)OC(=O)Nc1cccc(Cl)c1` get here? inactive

Just curious, what result did CCOC1Oc2ccc(OS(C)(=O)=O)cc2C1(C)C (centres undefined) get here? active
